Reference source: PubChem BioAssay (NCI)

Assay: NCI Yeast Anticancer Drug Screen. Data for the cln2 rad14 strain (AID 165);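 note: 0% = growth equal to vehicle treated cultures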
Details: S. cerevisiae cln2 rad14 strain, at 50.0 µM, active compounds read high
Compounds without any hit were thinned out: in the full panel of roughly 79,000, 15% have a hit.
property.name: growth inhibition (%)
Write down the numeric answer in % and omit the unit.

What measured growth inhibition goes with O=C(Cc1ccc(N(CCCl)CCCl)cc1)NC1CCCC1 ?
-22.9

Could you tell me which growth inhibition is on file for COc1cc2c(ccc3c4cc(OC)c(OC)cc4c[n+](C)c23)cc1O ?
16.4

I would be grateful if you could share the reported growth inhibition for Cc1cc(Nc2ccc(N(CCCl)CCCl)cc2)c(C)cc1O .
-5.85

Look up growth inhibition for this molecule: ClCCN(CCCl)c1ccc(/C=N\N=C\c2ccncc2)cc1
-8.5

Given the molecule O=C(N/N=C/c1cc(Cl)cc(Cl)c1[O-])c1ccccc1O.O=C(N/N=C/c1cc(Cl)cc(Cl)c1[O-])c1ccccc1O.[Cu+2] , what is its reported growth inhibition?
-38.2

Value lookup for growth inhibition; key = CC(C)(N)Cc1ccc(N)cc1
18.4

growth inhibition for ClC1=C(Cl)C2(Cl)C3C4CC(C5OC45)C3C1(Cl)C2(Cl)Cl (stereo unspecified) ?
15.5

Request the reported growth inhibition associated with Cc1ccc(NC(=O)/C=C/c2ccc([N+](=O)[O-])cc2)cc1S(=O)(=O)F
-5.6

What growth inhibition value was documented for this molecule, C[N+]1(C)C2CCC1CC(OC(=O)C(CO)c1ccccc1)C2 (stereo unspecified) ?
-28.4

Could you tell me which growth inhibition is on file for CCN(CC)/C(=C\Cl)Nc1ccccn1 ?
3.35

What value of measured growth inhibition is listed for CN(C)CCCNc1c2c(nc3ccc(Cl)cc13)CCCC2 ?
6.6

# lookup: growth inhibition of CC1=CP(=O)(OC(C)C)CC(C)=C1Cl (stereo unspecified)
-9.55

So what's the measured growth inhibition for this one? CC[C@@H](C)C(=O)O[C@H]1[C@H](O)[C@H]2[C@@H](CN3C[C@@H](C)CC[C@H]3[C@@]2(C)O)[C@@H]2C[C@]34O[C@@]5(O)[C@@H](OC(=O)[C@](C)(O)[C@@H](C)O)CC[C@@]3(C)[C@@H]5[C@@H](OC(C)=O)[C@@H](OC(C)=O)[C@H]4[C@@]21O
12.6

For CN/N=C(/CCN1CCCC1)CC(c1ccccc1)c1c(O)c2ccccc2oc1=O (stereo unspecified) , what is its reported growth inhibition?
35.2

Which measured growth inhibition value corresponds to [O-][n+]1c2ccccc2nc2ccccc21 ?
-9.55

Given COc1ccc(C(O)(C(=O)OCCSC)c2ccc(OC)cc2)cc1 , state its recorded growth inhibition.
-21.5

Can you share its growth inhibition? I mean this molecule: CC1CN1C(=O)NCCCCCCNC(=O)N1CC1C (stereo unspecified)
-38.7

What value of measured growth inhibition is listed for CCOC(=O)/C(C#N)=C(/SC)N1CC1 ?
-7.2

Item Nc1ccc(CCC(=O)Nc2ccc(S(=O)(=O)F)cc2)c(Cl)c1 has what recorded growth inhibition?
92

Return reported growth inhibition; argument: CC(=O)CC(C)=O.CC(=O)CC(C)=O.CC(=O)CC(C)=O.CC(=O)CC(C)=O.[Zr]
29.6

Return reported growth inhibition; argument: Cc1ccc(C)c(OP(=O)(Oc2cc(C)ccc2C)Oc2cc(C)ccc2C)c1
8.85
